- PROTOCOL: xn = mol fraction of the nth substance listed
- STUDY_CONDITIONS: 298.15 K; 101 kPa; Liquid; x1 = 0.9
MEASURED_QUANTITY: mass density (kg/m3)

CCOC(=O)c1ccccc1 [ethyl benzoate] + CCO; 1030.48
CCCCCCCC(=O)OCC [ethyl octanoate] + CCO; 859.5
CCOC(=O)Cc1ccccc1 [ethyl phenylacetate] + CCO; 1017.55
CCCC(=O)OCCC(C)C [3-methylbutyl butanoate] + CCO; 855.81
CCCCCC(=O)OCC [ethyl hexanoate] + CCO; 862.86

###

- PROTOCOL: xn = mol fraction of the nth substance listed
- STUDY_CONDITIONS: 318.15 K; 100.5 kPa; Liquid; x1 = 0.1
MEASURED_QUANTITY: viscosity (mPa·s)

CCCCCCCC(=O)OCC [ethyl octanoate] + CCO; 0.773
CCOC(=O)c1ccccc1 [ethyl benzoate] + CCO; 0.793
CCOC(=O)Cc1ccccc1 [ethyl phenylacetate] + CCO; 0.823
CCCC(=O)OCCC(C)C [3-methylbutyl butanoate] + CCO; 0.723
CCCCCC(=O)OCC [ethyl hexanoate] + CCO; 0.71
CC(=O)OCCC(C)C [3-methylbutyl ethanoate] + CCO; 0.68

###

- PROTOCOL: xn = mol fraction of the nth substance listed
- STUDY_CONDITIONS: 298.15 K; 100.5 kPa; Liquid; x1 = 0.15
MEASURED_QUANTITY: viscosity (mPa·s)

CCCCCC(=O)OCC [ethyl hexanoate] + CCO; 0.948
CCCC(=O)OCCC(C)C [3-methylbutyl butanoate] + CCO; 1.004
CCCCCCCC(=O)OCC [ethyl octanoate] + CCO; 1.087
CCOC(=O)Cc1ccccc1 [ethyl phenylacetate] + CCO; 1.195
CCOC(=O)c1ccccc1 [ethyl benzoate] + CCO; 1.148
CC(=O)OCCC(C)C [3-methylbutyl ethanoate] + CCO; 0.902

###

- PROTOCOL: xn = mol fraction of the nth substance listed
- STUDY_CONDITIONS: 308.15 K; 100.5 kPa; Liquid; x1 = 0.05
MEASURED_QUANTITY: viscosity (mPa·s)

CC(=O)OCCC(C)C [3-methylbutyl ethanoate] + CCO; 0.847
CCCC(=O)OCCC(C)C [3-methylbutyl butanoate] + CCO; 0.887
CCCCCCCC(=O)OCC [ethyl octanoate] + CCO; 0.915
CCOC(=O)c1ccccc1 [ethyl benzoate] + CCO; 0.926
CCOC(=O)Cc1ccccc1 [ethyl phenylacetate] + CCO; 0.947
CCCCCC(=O)OCC [ethyl hexanoate] + CCO; 0.866

###

- PROTOCOL: xn = mol fraction of the nth substance listed
- STUDY_CONDITIONS: 298.15 K; 101 kPa; Liquid; x1 = 0.5
MEASURED_QUANTITY: mass density (kg/m3)

CCOC(=O)Cc1ccccc1 [ethyl phenylacetate] + CCO; 963.35
CCCC(=O)OCCC(C)C [3-methylbutyl butanoate] + CCO; 839.9
CCOC(=O)c1ccccc1 [ethyl benzoate] + CCO; 969.07
CCCCCCCC(=O)OCC [ethyl octanoate] + CCO; 843.63
CCCCCC(=O)OCC [ethyl hexanoate] + CCO; 844.11

###

- PROTOCOL: xn = mol fraction of the nth substance listed
- STUDY_CONDITIONS: 308.15 K; 100.5 kPa; Liquid; x1 = 0.4
MEASURED_QUANTITY: viscosity (mPa·s)

Example compounds with recorded viscosity:
CCOC(=O)c1ccccc1 [ethyl benzoate] + CCO; 1.105
CCCC(=O)OCCC(C)C [3-methylbutyl butanoate] + CCO; 0.835
CCCCCC(=O)OCC [ethyl hexanoate] + CCO; 0.759
CCOC(=O)Cc1ccccc1 [ethyl phenylacetate] + CCO; 1.239

P: CCCCCCCC(=O)OCC [ethyl octanoate] + CCO
Q: CC(=O)OCCC(C)C [3-methylbutyl ethanoate] + CCO
Please indicate which has the smaller reported viscosity: P , or Q . Answer = label.
Q
(Q: 0.68 mPa·s, P: 0.984 mPa·s)
